Listed binders paired with reported Kd
# SYSTEM TESTED: T1, human GFRAL (analyte in Biacore assays) (human, UniProt Q6UXV0 19-351, limits assumed)
# T1 construct: injected in solution over captured antibody; also called hGFRAL
# T1 sequence: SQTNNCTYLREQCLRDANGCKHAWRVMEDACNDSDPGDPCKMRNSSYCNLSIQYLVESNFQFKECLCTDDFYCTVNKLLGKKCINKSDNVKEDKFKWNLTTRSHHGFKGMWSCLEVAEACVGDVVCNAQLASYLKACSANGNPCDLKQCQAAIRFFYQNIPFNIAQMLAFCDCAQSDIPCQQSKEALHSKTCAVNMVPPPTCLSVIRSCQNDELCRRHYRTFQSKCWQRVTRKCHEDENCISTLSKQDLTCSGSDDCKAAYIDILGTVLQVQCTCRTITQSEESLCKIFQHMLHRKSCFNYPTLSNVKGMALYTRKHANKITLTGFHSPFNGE
# METHOD: Biacore SPR, antibody captured, human GFRAL injected
Please reply with the bare figure in pM and do not write the unit itself.

Examples with answers:
Exam item: Name the recorded Kd for antibody designated 5F12 (antibody, V domains shown, mouse hybridoma monoclonal; also called 5F12 Hybridoma) VH: QVQLKQSGTELVRPGASVKLSCKASGYTFTDYYINWVKQRPGQGLEWIARIYPGNGNTYHNEKFKGKATLTAEKSSSTAYMQLSSLTSEDSAVYFCAREGLYYDYDRYFDYWGQGTALTVSS VL: NIVLTQSPASLAVSLGQRATISCRASESVDTYGNSFMHWYQQKPGQPPKLLIYLASNLESGVPARFSGSGSRTDFTLTIDPVEADDAATYYCHQNNEDPPAFGGGTKLEIK .
Marked response: 38

Exam item: Also check humanized anti-GFRAL antibody HC-375e/LC-375a (antibody, V domains shown, humanized 5F12) VH: QVQLVQSGAEVKKPGSSVKVSCKASGYTFTDYYINWVRQAPGQGLEWMGRIYPGNGNTYHNEKFKGRATLTADESTSTAYMELSSLRSEDTAVYYCAREGLYYDYDRYFDYWGQGTLVTVSS VL: DIVMTQSPDSLAVSLGERATINCRASESVDTYGNSFMHWYQQKPGQPPKLLIYLASNLESGVPDRFSGSGSGTDFTLTISSLQAEDVAVYYCHQNNEDPPAFGGGTKVEIK
Marked response: 91

Exam item: Also check humanized anti-GFRAL antibody HC-375e/LC-375j (antibody, IgG1, V domains shown, humanized 5F12) VH: QVQLVQSGAEVKKPGSSVKVSCKASGYTFTDYYINWVRQAPGQGLEWMGRIYPGNGNTYHNEKFKGRATLTADESTSTAYMELSSLRSEDTAVYYCAREGLYYDYDRYFDYWGQGTLVTVSS VL: DIVLTQSPLSLPVTLGQPASISCRASESVDTYGNSFMHWYQQRPGQSPRLLIYLASNLESGVPDRFSGSGSRTDFTLKISRVEAEDVGVYYCHQNNEDPPAFGGGTKVEIK
Marked response: 48

Further cases:
Exam item: Name the recorded Kd for humanized anti-GFRAL antibody HC-375d/LC-375g (antibody, IgG1, V domains shown, humanized 5F12) VH: QVQLVQSGAEVKKPGSSVKVSCKASGYTFTDYYINWVRQAPGQGLEWIGRIYPGNGNTYHNEKFKGRATLTADKSTSTAYMELSSLRSEDTAVYYCAREGLYYDYDRYFDYWGQGTLVTVSS VL: DIVLTQSPDSLAVSLGERATINCRASESVDTYGNSFMHWYQQKPGQPPKLLIYLASNLESGVPDRFSGSGSRTDFTLTISSLQAEDVAVYYCHQNNEDPPAFGGGTKVEIK .
Marked response: 77
